Biological target: human PAI-1, active, wild-type, non-glycosylated (E. coli-derived) (human, UniProt P05121 24-402)
Sequence (P05121 24-402): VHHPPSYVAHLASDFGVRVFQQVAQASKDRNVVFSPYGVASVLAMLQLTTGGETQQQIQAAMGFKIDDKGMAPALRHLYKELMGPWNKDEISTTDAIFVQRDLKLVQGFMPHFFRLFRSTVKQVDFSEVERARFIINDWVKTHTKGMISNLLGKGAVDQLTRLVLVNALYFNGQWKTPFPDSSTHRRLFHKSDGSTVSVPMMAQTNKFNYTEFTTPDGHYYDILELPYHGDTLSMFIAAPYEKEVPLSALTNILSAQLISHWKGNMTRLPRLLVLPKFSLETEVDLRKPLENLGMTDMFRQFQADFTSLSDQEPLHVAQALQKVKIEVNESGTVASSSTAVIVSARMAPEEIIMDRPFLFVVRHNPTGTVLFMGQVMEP
Experiment: cell-based or functional assay
metricName: IC50 chromogenic (nM)

- Antibody 15, scFv (scFv, V domains shown) VH: QVQLQQSGAEVKKPGSSVKVSCKASGGTFSSYAISWVRQAPGQGLEWMGGIIPTFGTANYAQKFQGRVTITADESTSTAYMELSGLRSEDTAVYYCAREKRQWLEGHFDYWGRGTPVTVSS VL: DIQMAQSPSFLSASIGDRVTITCRASEGIYHNLAWYQQKPGKAPKLLIYRASSLASGAPSRFSGSGSGTDFTLTISSLQPDDFATYYCQQYSNYPLTFGGGTKLEIR: 7.2
- Antibody 23, scFv (scFv, V domains shown) VH: QVQLQQSGAEVKKPGSSVKVSCKASGGTFSSYAISWVRQAPGQGLEWMGGIIPTFGTANYAQKFQSRVTITADESTSTAYMELSGLRSEDTAVYYCAREKRQWLEGHFDYWGRGTPVTVSS VL: DIQMTQSPSFLSASIGDRVTITCRASEGIYHSLAWYQQKPGKAPKLLIYRASSLASGAPSRFSGSGSGTDFTLTISSLQPDDFATYYCQQYSNYPLTFGGGTKLEIK: 1.6
- Antibody 20, IgG1, not germlined (antibody, V domains shown, whole IgG1; also called Ab 20) VH: QVQLQQSGAEVKKPGSSVKVSCKASGGTFSSYAISWVRQAPGQGLEWMGGIIPTFGTANYAQKFQGRVTITADESTSTAYMELSSLRSEDTAVYYCAREKRQWLEGHFDYWGRGTLVTVSS VL: DIQMTQSPSTLSASVGDRVTITCRASEGIYHELAWYQQKPGKAPKLLIYRASSLASGVPSRFSGSRSGTEFTLTISSLQPDDFATYYCQQYSDYPLTFGGGTKVEIK: 1.6
